Tested on: Mycobacterium tuberculosis
Test: AntiMycobacterium tuberculosis activity Non-Replicating form: Average MIC90 (uM)
Assay type: functional
Readings of MIC90 for the listed compounds
experimental endpoint: MIC90

> print(dat)
                                    compound  readout.value
 1  CCc1ccc([C@@H]2C[C@H](C(F)(F)F)n3ncc(C(=O)NCc4ccc(OC)cc4)c3N2)cc1        1.13 µM
 2  O=C(NC1CCCCC1)N1CCN(Cc2ccc3c(c2)OCO3)CC1       > 100 µM
 3     O=C(COc1cccc(F)c1)Nc1nc(-c2ccccn2)cs1        27.5 µM
 4  O=C(NCc1ccoc1)N1CCN(Cc2ccc3c(c2)OCO3)CC1        57.1 µM
 5  O=C(c1[nH]nc2c1CCCC2)N1CCN(Cc2ccc3c(c2)OCO3)CC1      > 15.5 µM
 6  CCC(Sc1nc2ccccc2o1)C(=O)Nc1nccs1 (stereo unspecified)        1.38 µM
 7      NC(=O)c1cc(-c2ccsc2)ccc1OCCOc1ccccc1        3.96 µM
 8             CCCn1c(CNc2ccccc2O)nc2ccccc21        7.04 µM
 9          COc1cc(C(F)(F)F)nc2ccc(C)c(N)c12        16.1 µM
10  Cc1cc(C)cc(COc2ccc3c(C)c(CCC(=O)O)c(=O)oc3c2C)c1       > 100 µM
11  c1ccc(C[C@@H]2CN(c3nccc(Oc4ccc(-n5ccnc5)cc4)n3)CCN2)cc1        38.1 µM
12  CCOC(=O)c1cc(-c2csc(Nc3c(C)cc(C)cc3C)n2)on1        13.8 µM
13  CN1CCN(CCCOc2ncc(Nc3ncc(-c4ccc(C(F)(F)F)c(F)c4)nc3C(N)=O)cn2)CC1         3.1 µM
14  C[C@]1(COc2ccc(N3CCC(Oc4ccc(OC(F)(F)F)cc4)CC3)cc2)Cn2cc([N+](=O)[O-])nc2O1         0.2 µM
15  Cc1ccc2oc(-c3cc(NC(=O)Cc4ccccc4)ccc3Cl)nc2c1       > 100 µM
16  O=C(Nc1nc(-c2ccccn2)cs1)c1cncn1-c1ccccc1        32.5 µM
17                 FC(F)(F)c1nnc2ccc(Cl)nn12        7.75 µM
18  CCc1nc2ccccc2n1CC(O)COc1cc(C)ccc1Cl (stereo unspecified)          70 µM
19  Cc1ccc2[nH]c(C3CCCNC3)c(-c3ccncc3)c2c1 (stereo unspecified)        50.5 µM
20  Cc1cc(Cl)ccc1NC(=O)CCc1ccc(S(=O)(=O)NCC(C)C)cc1        13.4 µM
21  COc1ccc(Cn2cnc3c(-c4ccco4)nc(Cl)nc32)cc1        8.43 µM
22       COc1ccccc1OCCCCn1c(C2CC2)nc2ccccc21        16.4 µM
23  COC(=O)c1c(NC(=O)c2c(F)c(F)c(F)c(F)c2F)sc2c1CCCCC2         3.8 µM
24          O=C(NC1=NCCS1)c1sc2cc(F)ccc2c1Cl        39.3 µM
25  CCC(C)NC(=O)c1ccc(NC(=O)C2(c3ccccc3)CCCC2)cc1 (stereo unspecified)       > 100 µM
26       CCOc1ccc(OCC(=O)Nc2cc(C)cc(C)c2)cc1          65 µM
27  COc1ccc(-c2cc(NC(=O)c3ccc(F)cc3Cl)ccc2OC)cc1        67.7 µM
28  O=C1O[C@@H](CO)CN1c1cc(F)c(C2=CCN(Cc3ccccc3)CC2)c(F)c1          19 µM
29            NC(=O)c1cc(Br)ccc1OCCOc1ccccc1       > 100 µM
30  CCOC(=O)NC(=O)c1ccsc1NC(=O)c1nc2ccccc2s1        0.34 µM
31    O=C(Nc1nnc(-c2ccc(Cl)s2)o1)c1ccc(Cl)s1        2.76 µM
32  CCc1ccc(S(=O)(=O)Nc2cc(CN3CCN(CCC(C)C)CC3)ccc2C)cc1        89.8 µM
33  CC1COC2(CCN(c3nc(=O)c4cc(C(F)(F)F)cc([N+](=O)[O-])c4s3)CC2)O1 (stereo unspecified)      < 0.01 µM
34    COc1ccc2nc(C)cc(OCC(=O)NCc3ccccc3)c2c1        27.1 µM
35    Cc1cc(OCC(=O)NCc2ccccc2)c2cc(Br)ccc2n1        21.2 µM
36  N#Cc1nc(-c2ccccc2)oc1S(=O)(=O)c1ccc(Cl)cc1        0.41 µM
37  O=C(Nc1ccc(C(F)(F)F)c(C(F)(F)F)c1)c1cc(Cl)ccc1O         0.1 µM
38  NC(CC(=O)c1ccc(Cl)cc1Cl)C(Cl)(Cl)Cl (stereo unspecified)        6.04 µM
39  CCCCOC(=O)Nc1cc2nc(C3CCCCC3)[nH]c2cc1N1CCCC1        97.3 µM
40  CC(C)n1ncc2c(C(=O)NCC(c3cccs3)N3CCOCC3)cc(-c3ccccc3)nc21 (stereo unspecified)        1.28 µM
41    Cc1nn(Cc2ccccc2)c(Cl)c1C(=O)NC1CCCCCC1        5.96 µM
